# target: MS2 coat protein, dlFG mutant (Escherichia phage MS2, UniProt P03612, del68-81insG)
# assay.overview: 4 mM Mg2+; no ligand; RNA-MaP array; 100 mM Tris-HCl pH 7.5, 80 mM KCl, 4 mM MgCl2, 0.1 mg/mL BSA, 1 mM DTT, 0.01 mg/mL yeast tRNA, 0.01% Tween-20; protein 1.5 nM to 3 uM; 37 C (Table S3)
# experimental.setup: chain copies: 2; label: tethered by stalled RNA polymerase
pKd: −log10 of the molar value.
For each record, write down the corresponding pKd.

**Q:** Consider the binder UUUGUUGCCAGUGAUGUUGGCAACUUU (ssRNA) [Eterna 11 (K4-alt7bp_control)] and give its measured pKd.
**A:** < 5.52

**Q:** Recorded pKd for UUUAAUGAGGGAACUGCUUAGUUU (ssRNA) [Eterna 5 (OligoOldBControl)] , please?
**A:** < 5.52

**Q:** What value of measured pKd is listed for Eterna 7678744 (Same State - Tryptophan A) (ssRNA) RNA: ACAGGAUCGAAAGAUCCUGAGCAGUCAAAACGAGGACCGGUACGGCCGCCACUCGAAUAAGAGAGUGAUGUUCUCGACUGCAAAA ?
**A:** < 5.52
